Data credit: patent US12414959B2

- protocol description: Preparation of clear sugar mixture solutions: clearness of dissolution
- Format: physicochemical
- particulars: added in an amount of two times the solubility until colorless, water for injection, room temperature
readout type: clearness of dissolution

In the examples that follow, each entry is paired with its recorded clearness of dissolution.
Measured clearness of dissolution, `O=C[C@H](O)[C@@H](O)[C@@H](O)[C@H](O)CO` : clearly dissolved

Measured clearness of dissolution, `O=C[C@H](O)[C@@H](O)[C@H](O)CO` : not clearly dissolved

Measured clearness of dissolution, `C[C@H](O)[C@@H](O)[C@@H](O)[C@H](O)C=O` : clearly dissolved

Measured clearness of dissolution, CC(=O)N[C@H]1[C@H]([C@H](O)[C@H](O)CO)OC(O)(C(=O)O)C[C@@H]1O (stereo partly shown) : not clearly dissolved

Measured clearness of dissolution, CC(=O)N[C@H]1C(O)O[C@H](CO)[C@@H](O)[C@@H]1O (stereo partly shown) : clearly dissolved

---
Measured clearness of dissolution, `O=C[C@H](O)[C@@H](O)[C@H](O)[C@H](O)CO` : clearly dissolved

Measured clearness of dissolution, CC(=O)N[C@H]1C(O)O[C@H](CO)[C@H](O)[C@@H]1O (stereo partly shown) : clearly dissolved
